Source: patent US20150284360A1

- assay remarks: Solubility of a compound in water
- Type: physicochemical
- measurement context: compound added until saturated
measured attribute: Solubility in Water (mg/mL)

INSERT INTO measurements (compound, measured_attribute, unit_text, relation_sign, measured) VALUES
  ('Cl.N[C@@H](Cc1ccccc1)C(=O)Nc1ccccc1NC(=O)CCCCCC(=O)Nc1cccc(Br)c1 [Phe-CC30•HCl]', 'Solubility in Water', 'mg/mL', '=', 10),
  ('Nc1ccccc1NC(=O)c1ccc(CNc2nccc(-c3cccnc3)n2)cc1 [MGCD0103, Mocetinostat, reference compound]', 'Solubility in Water', 'mg/mL', '<', 1),
  ('CC(C)[C@H](N)C(=O)Nc1ccccc1NC(=O)CCCCCC(=O)Nc1ccccc1.Cl [Val-PAOA•HCl]', 'Solubility in Water', 'mg/mL', '>', 100),
  ('Cl.NCC(=O)Nc1ccccc1NC(=O)CCCCCC(=O)Nc1ccccc1 [Gly-PAOA•HCl]', 'Solubility in Water', 'mg/mL', '=', 11),
  ('Nc1ccccc1NC(=O)CCCCCC(=O)Nc1cccc(Br)c1 [CC30]', 'Solubility in Water', 'mg/mL', '=', 0.006),
  ('C[C@@H](O)[C@H](N)C(=O)Nc1ccccc1NC(=O)CCCCCC(=O)Nc1cccc(Br)c1.Cl [Thr-CC30•HCl]', 'Solubility in Water', 'mg/mL', '=', 1350),
  ('Cl.Cl.NCCCC[C@H](N)C(=O)Nc1ccccc1NC(=O)c1ccc(CNC(=O)OCc2cccnc2)cc1 [Lys-MS-275•2HCl]', 'Solubility in Water', 'mg/mL', '>', 100),
  ('Cl.N[C@@H](CO)C(=O)Nc1ccccc1NC(=O)CCCCCC(=O)Nc1cccc(Br)c1 [Ser-CC30•HCl]', 'Solubility in Water', 'mg/mL', '=', 10),
  ('Cl.Cl.NCCCC[C@H](N)C(=O)Nc1ccccc1NC(=O)CCCCCC(=O)Nc1cccc(Br)c1 [Lys-CC30•2HCl]', 'Solubility in Water', 'mg/mL', '=', 750),
  ('Cl.NCC(=O)Nc1ccccc1NC(=O)c1ccc(CNc2nccc(-c3cccnc3)n2)cc1 [Gly-MGCD0103•HCl]', 'Solubility in Water', 'mg/mL', '>', 100),
  ('Cl.Cl.NCCC[C@H](N)C(=O)Nc1ccccc1NC(=O)CCCCCC(=O)Nc1cccc(Br)c1 [Orn-CC30•HCl]', 'Solubility in Water', 'mg/mL', '=', 720),
  ('O=C([O-])CCC(=O)Nc1ccccc1NC(=O)CCCCCC(=O)Nc1cccc(Br)c1.[Na+] [CC30-Suc-ONa]', 'Solubility in Water', 'mg/mL', '=', 2),
  ('Cl.NC(=O)C[C@H](N)C(=O)Nc1ccccc1NC(=O)CCCCCC(=O)Nc1cccc(Br)c1 [Asn-CC30•HCl]', 'Solubility in Water', 'mg/mL', '=', 30),
  ('Cl.NCC(=O)Nc1ccccc1NC(=O)CCCCCC(=O)Nc1cccc(Br)c1 [Gly-CC30•HCl]', 'Solubility in Water', 'mg/mL', '=', 10),
  ('Cl.NC(CO)C(=O)Nc1ccccc1NC(=O)c1ccc(CNc2nccc(-c3cccnc3)n2)cc1 (stereo not shown) [Ser-MGCD0103•HCl]', 'Solubility in Water', 'mg/mL', '>', 100),
  ('Cl.NC(CO)C(=O)Nc1ccccc1NC(=O)c1ccc(CNC(=O)OCc2cccnc2)cc1 (stereo not shown) [Ser-MS-275•HCl]', 'Solubility in Water', 'mg/mL', '>', 100),
  ('Cl.Cl.NCCCCC(N)C(=O)Nc1ccccc1NC(=O)c1ccc(CNc2nccc(-c3cccnc3)n2)cc1 (stereo not shown) [Lys-MGCD0103•2HCl]', 'Solubility in Water', 'mg/mL', '>', 100),
  ('CC(C)C[C@H](N)C(=O)Nc1ccccc1NC(=O)CCCCCC(=O)Nc1cccc(Br)c1.Cl [Leu-CC30•HCl]', 'Solubility in Water', 'mg/mL', '=', 50);

* * *

- assay remarks: Solubility of a compound in water
- Assay type: physicochemical
- measurement context: compound added until saturated
measured attribute: Solubility in Water

INSERT INTO results (compound, measured_attribute, measured) VALUES
  ('Cl.Cl.NCCCC[C@H](N)C(=O)Nc1ccccc1NC(=O)CCCCCC(=O)Nc1ccccc1 [Lys-PAOA•2HCl]', 'Solubility in Water', '>100 mg/mL'),
  ('Cl.Cl.N[C@@H](Cc1c[nH]cn1)C(=O)Nc1ccccc1NC(=O)CCCCCC(=O)Nc1cccc(Br)c1 [His-CC30•2HCl]', 'Solubility in Water', '130 mg/mL'),
  ('C[C@@H](O)[C@H](N)C(=O)Nc1ccccc1NC(=O)c1ccc(CNc2nccc(-c3cccnc3)n2)cc1.Cl [Thr-MGCD0103•HCl]', 'Solubility in Water', '>100 mg/mL'),
  ('CC(C)[C@H](N)C(=O)Nc1ccccc1NC(=O)c1ccc(CNC(=O)OCc2cccnc2)cc1.Cl [Val-MS-275•HCl]', 'Solubility in Water', '>100 mg/mL'),
  ('CC(C)[C@H](N)C(=O)Nc1ccccc1NC(=O)CCCCCC(=O)Nc1cccc(Br)c1.Cl [Val-CC30•HCl]', 'Solubility in Water', '170 mg/mL'),
  ('CC(C)C(N)C(=O)Nc1ccccc1NC(=O)c1ccc(CNc2nccc(-c3cccnc3)n2)cc1.Cl (stereo not shown) [Val-MGCD0103•HCl]', 'Solubility in Water', '>100 mg/mL'),
  ('CC(O)C(N)C(=O)Nc1ccccc1NC(=O)c1ccc(CNC(=O)OCc2cccnc2)cc1.Cl (stereo not shown) [Thr-MS-275•HCl]', 'Solubility in Water', '>100 mg/mL');
